assaySystem: UniProtKB P07900
Type: functional, organism-based
Active and inactive are the calls of the source.
metric: AC50

Take a look at these entries with their results.
{"columns": ["compound", "assaySystem", "metric", "recordedMeasurement"],
 "data": [
  ["CCCCCCCCCCCCn1ccc(=N)cc1", "UniProtKB P07900", "AC50", "10.8 µM (active)"],
  ["CCCNC(=O)c1nnsc1S(=O)(=O)c1ccc(Cl)cc1", "UniProtKB P07900", "AC50", "0.602 µM (active)"],
  ["CCOC(=O)COc1ccc2ccccc2c1/C=C/[N+](=O)[O-]", "UniProtKB P07900", "AC50", "4.28 µM (active)"],
  ["CC(=O)NC(c1ccc2ccccc2c1)c1ccc2cccnc2c1O (stereo unspecified)", "UniProtKB P07900", "AC50", "1.98 µM (active)"],
  ["CCc1ccc(-c2cc(C(=O)N3N=C(C(F)F)CC3(O)C(F)F)c3ccccc3n2)cc1 (stereo unspecified)", "UniProtKB P07900", "AC50", "4.04 µM (active)"]
]}

Next:
I have this compound here, `O=C(N/N=C/c1sc2ccccc2c1O)c1cccc2ccccc12` , and I need its recorded AC50. 14 µM (active)

###

assaySystem: Polyadenylate-binding protein 1 (Homo sapiens)
Sequence (P11940 whole entry): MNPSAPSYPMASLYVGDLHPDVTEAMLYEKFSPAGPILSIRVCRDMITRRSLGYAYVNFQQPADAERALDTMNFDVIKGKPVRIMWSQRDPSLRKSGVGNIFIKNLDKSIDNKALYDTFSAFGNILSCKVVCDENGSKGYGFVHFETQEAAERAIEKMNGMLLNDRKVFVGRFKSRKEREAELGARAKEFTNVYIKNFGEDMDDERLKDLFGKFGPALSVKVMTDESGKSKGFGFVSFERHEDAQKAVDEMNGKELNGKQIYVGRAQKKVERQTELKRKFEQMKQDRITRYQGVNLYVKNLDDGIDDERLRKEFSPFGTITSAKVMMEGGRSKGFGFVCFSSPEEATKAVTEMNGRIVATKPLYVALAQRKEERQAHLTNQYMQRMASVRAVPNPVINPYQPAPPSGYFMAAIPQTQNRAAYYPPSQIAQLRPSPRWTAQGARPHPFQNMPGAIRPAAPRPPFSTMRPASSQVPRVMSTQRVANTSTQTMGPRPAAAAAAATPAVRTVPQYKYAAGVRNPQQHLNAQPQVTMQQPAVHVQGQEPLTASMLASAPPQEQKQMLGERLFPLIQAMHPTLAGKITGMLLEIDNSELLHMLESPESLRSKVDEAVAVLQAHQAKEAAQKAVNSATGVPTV
method: blockers of PABP interaction with poly(A) – biochemical, fluorescence polarization, […] (AID 2014)
Calls of active or inactive are those of the source.
metric: IC50

{"columns": ["molecule", "IC50"],
 "data": [
  ["CCN1CCN(c2nc3ccccc3nc2C(C#N)C(=O)OCc2ccccc2)CC1 (centres undefined)", "44.8 µM (active)"],
  ["COc1ccc(/C=N/NC2=NC(=O)C(CC(=O)O)S2)cc1OCc1ccc(Cl)cc1Cl (centres undefined)", "64.3 µM (active)"],
  ["CC1=CC(C)C2C(=O)N(CCC[N+](C)(C)C)C(=O)C2C1 (centres undefined)", "6.94 µM (active)"]
]}

We now examine a further molecule.
Name the recorded IC50 for `O=C(Nc1cccc2ncccc12)c1ccccc1Cl` . 4 µM (active)

###

assaySystem: Heat shock factor protein 1 (Mus musculus, UniProt P38532)
method: decrease of HSF1-responsive luciferase luminescence – cell-based, NIH3T3, dose retest, confirmation (AID 2382);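 further: NIH3T3 fibroblasts with HSF1-driven luciferase reporter stressed by proteasome inhibitor MG132; luminescence from HSF1-driven luciferase expression after 8 hours of MG132 stress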
Type: functional
Activity calls are given as the source filed them.
Consider the following molecules and their measured EC50 readings.

{"columns": ["molecule", "EC50"],
 "data": [
  ["O=C(/C=C/c1ccccc1)NC(=S)N1CCSCC1", "> 195 µM (not active)"],
  ["COc1ccc(C(=O)NCc2nnc(SCC(=O)N3CCC(C)CC3)o2)cc1OC", "> 195 µM (not active)"],
  ["COc1ccc(/C=C2\\CCCC3C2=NN(C(=O)COC(=O)CNC(=O)c2ccccc2)C3c2ccc(OC)cc2)cc1 (configuration not stated)", "> 195 µM (not active)"]
]}

Recorded EC50 of CC(CCCC(C)(C)O)NC(=O)c1ccc2oc(CCc3ccccc3)nc2c1 (configuration not stated) , please. > 195 µM (not active)

For `CCOC(=O)c1c(C)[nH]c2c1-c1ccccc1C(=O)C2=O` then? 1.57 µM (active)

###

assaySystem: Calpain-2 catalytic subunit (Sus scrofa, UniProt P43367)
Sequence (P43367 whole entry): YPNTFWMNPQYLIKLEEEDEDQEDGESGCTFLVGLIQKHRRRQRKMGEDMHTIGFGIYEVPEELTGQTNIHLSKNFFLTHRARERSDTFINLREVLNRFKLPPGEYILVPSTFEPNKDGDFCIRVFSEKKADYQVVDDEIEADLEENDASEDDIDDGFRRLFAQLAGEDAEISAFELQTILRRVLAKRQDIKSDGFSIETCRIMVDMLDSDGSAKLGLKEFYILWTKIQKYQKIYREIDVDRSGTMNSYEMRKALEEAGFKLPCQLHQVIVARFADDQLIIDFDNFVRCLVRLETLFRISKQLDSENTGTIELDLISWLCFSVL
method: m-calpain protease blockers, concentration series – biochemical, fluorogenic peptide substrate, dose response (AID 1420)
Format: functional
metric: IC50

For orientation, consider the following solved cases.
{"columns": ["compound", "metric", "recordedMeasurement"],
 "data": [
  ["Cc1cc(C)cc(SCc2noc(C(=O)NCc3ccccc3)c2C(=O)NCc2ccccc2)c1", "IC50", "6.27 µM (not active)"],
  ["Cc1ccc(S(=O)(=O)N2CCCCC2)cc1NC(=O)COC(=O)c1ccc2c(c1)OCO2", "IC50", "1.74 µM (not active)"],
  ["CC(C)n1c(O)c(N=NC(=O)CNC(=O)CCc2ccccc2)c2ccccc21", "IC50", "> 50 µM (not active)"],
  ["Cc1[nH]c2ccccc2c1/C=N\\NC(=O)Cn1nnc(-c2ccccc2)n1", "IC50", "> 50 µM (not active)"],
  ["COc1cc(NS(=O)(=O)c2ccc(NC(=S)NC(=O)c3sc4ccccc4c3Cl)cc2)nc(OC)n1", "IC50", "> 50 µM (not active)"],
  ["COc1ccc2c(c1)C(C)CC(C)(C)N2C(=O)CSc1nc2ccccc2s1 (centres undefined)", "IC50", "3.08 µM (not active)"],
  ["CN(C)/N=C/c1cc([N+](=O)[O-])ccc1O", "IC50", "13.8 µM (not active)"],
  ["Cc1cccc(NC(=O)CN2C(=O)N/C(=C/c3cc(C)n(-c4cccnc4)c3C)C2=O)c1", "IC50", "> 50 µM (not active)"]
]}

In the following, a different compound is considered.
Quick one: IC50 for `Cc1ccc(NCc2nnc(SCC(=O)N(Cc3ccccc3)C(C)(C)C)o2)c(C)c1` ? 5.13 µM (not active)

###

assaySystem: Photoreceptor-specific nuclear receptor (Homo sapiens, UniProt Q9Y5X4);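 further: CHO-S cells with Gal4-NCOR and VP16-NR2E3 two-hybrid luciferase reporter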
Sequence (Q9Y5X4 whole entry, the tested form may be a part): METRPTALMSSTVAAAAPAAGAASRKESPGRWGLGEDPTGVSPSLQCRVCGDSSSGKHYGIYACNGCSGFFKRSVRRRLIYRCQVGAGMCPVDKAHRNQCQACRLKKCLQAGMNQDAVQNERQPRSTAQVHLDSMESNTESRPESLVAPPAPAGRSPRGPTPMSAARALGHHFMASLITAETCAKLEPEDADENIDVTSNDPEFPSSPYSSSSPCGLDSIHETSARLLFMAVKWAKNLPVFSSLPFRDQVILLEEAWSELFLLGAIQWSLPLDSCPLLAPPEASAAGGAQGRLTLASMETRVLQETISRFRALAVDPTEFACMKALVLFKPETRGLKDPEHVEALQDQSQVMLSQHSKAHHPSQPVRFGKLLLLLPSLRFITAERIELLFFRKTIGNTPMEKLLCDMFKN
Assay type: functional, cell-based
Active and inactive are the calls of the source.
Answer with one of the outcomes given here: True for active, False for inactive

These solved cases illustrate the format of a correct answer.
{"columns": ["smilesRecord", "group"],
 "data": [
  ["CSC(=Nc1ccccc1)N=C(SCc1ccccc1)N(C)C", "True"],
  ["CCN(CC)S(=O)(=O)c1ccc(NC(=O)Nc2cccc(C(F)(F)F)c2)cc1", "True"],
  ["Cc1cc(C(=O)CSc2nnc3ccccn23)c(C)n1-c1ccccc1", "False"]
]}

Turning now to a further record.
Dear all, I need the recorded test outcome for `O=C(c1cc(S(=O)(=O)N2CCN(c3ccccc3)CC2)ccc1Cl)N1CCCCCCC1` , thank you. True

###

assaySystem: Replicative DNA helicase DnaB (Mycobacterium tuberculosis, UniProt P9WMR3)
Sequence (P9WMR3 1-399, added parts left off): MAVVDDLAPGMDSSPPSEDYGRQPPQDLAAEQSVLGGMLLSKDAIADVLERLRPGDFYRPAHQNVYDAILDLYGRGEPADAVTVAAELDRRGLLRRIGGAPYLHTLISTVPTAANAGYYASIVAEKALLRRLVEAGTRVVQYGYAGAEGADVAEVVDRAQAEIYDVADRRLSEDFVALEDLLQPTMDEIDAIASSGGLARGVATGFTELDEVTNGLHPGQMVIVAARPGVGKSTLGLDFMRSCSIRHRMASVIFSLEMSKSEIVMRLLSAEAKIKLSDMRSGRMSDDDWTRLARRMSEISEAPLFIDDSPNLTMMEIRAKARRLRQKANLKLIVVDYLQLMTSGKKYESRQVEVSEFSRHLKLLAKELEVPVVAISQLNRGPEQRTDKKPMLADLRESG
method: DnaB intein splicing inhibitors, dose response, biochemical, cell-free fluorescence (AID 449749)
Assay type: functional
Activity calls are given as the source filed them.
Entry note: the call must match one of t = active, f = inactive

Example cases with answers are listed next.
{"columns": ["smilesRecord", "group"],
 "data": [
  ["O=C(CNC(=O)c1ccccc1)N/N=C/c1ccc([N+](=O)[O-])o1", "f"],
  ["CC(C)[C@H](NC(=O)OC(C)(C)C)c1nnc(S(=O)(=O)Cc2c(F)cccc2Cl)o1", "t"],
  ["O=C(CCCN1C(=O)/C(=C\\c2ccccc2)SC1=S)Nc1ccc(O)cc1C(=O)O", "t"],
  ["COc1cc(C(c2c(C)n[nH]c2O)c2c(C)n[nH]c2O)cc(Br)c1OC", "t"]
]}

Lab note: next molecule to report on.
Recorded call for `O=C(OCn1ncc(Cl)c(Cl)c1=O)c1ccc(C(F)(F)F)cc1` ? t

###

// reported AC50 for each item listed
assaySystem: DNA repair and recombination protein RAD54-like (Homo sapiens, UniProt Q92698)
Sequence (Q92698 whole entry): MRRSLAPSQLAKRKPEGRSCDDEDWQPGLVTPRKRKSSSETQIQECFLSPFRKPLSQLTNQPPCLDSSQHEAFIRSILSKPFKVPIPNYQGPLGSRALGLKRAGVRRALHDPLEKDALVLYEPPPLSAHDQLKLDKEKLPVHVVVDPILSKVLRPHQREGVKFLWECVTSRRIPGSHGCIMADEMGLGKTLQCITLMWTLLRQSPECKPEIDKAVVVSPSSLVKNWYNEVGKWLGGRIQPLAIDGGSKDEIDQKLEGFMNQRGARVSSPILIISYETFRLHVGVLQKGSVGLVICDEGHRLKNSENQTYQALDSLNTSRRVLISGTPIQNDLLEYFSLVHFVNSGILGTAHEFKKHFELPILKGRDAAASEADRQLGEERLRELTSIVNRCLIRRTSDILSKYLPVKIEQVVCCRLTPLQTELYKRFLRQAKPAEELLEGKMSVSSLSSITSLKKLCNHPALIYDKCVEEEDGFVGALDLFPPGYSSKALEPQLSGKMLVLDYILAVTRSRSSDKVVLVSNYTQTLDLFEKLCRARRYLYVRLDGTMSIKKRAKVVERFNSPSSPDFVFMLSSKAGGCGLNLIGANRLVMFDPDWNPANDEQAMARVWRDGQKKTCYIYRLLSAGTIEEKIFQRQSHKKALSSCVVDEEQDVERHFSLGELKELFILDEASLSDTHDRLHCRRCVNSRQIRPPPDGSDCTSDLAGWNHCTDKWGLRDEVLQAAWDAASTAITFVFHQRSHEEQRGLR
method: RAD54 Holliday junction migration blockers – biochemical, fluorescence, cherry-picked samples, dose series, confirmation (AID 651657)
Assay type: functional
Active and inactive are the calls of the source.

Some solved cases for reference:
{"columns": ["smilesRecord", "AC50"],
 "data": [
  ["Cc1ccc(-c2nc(N(C)C3CCN(C)CC3)c3ccccc3n2)cc1", "3.93 µM (active)"],
  ["CN(C)CCCN1C(=O)c2cccc3cccc(c23)C1=O", "11.1 µM (active)"],
  ["COc1ccc(OC)c2sc(N(CCN(C)C)C(=O)c3ccc4ccccc4c3)nc12", "58.4 µM (active)"]
]}

Give the measured AC50 of `CCCCN(CC)CCCNC(=O)c1cc2c(=O)n(C)c3ccccc3c2n1C` . 22.2 µM (active)

###

assaySystem: Heat shock factor protein 1 (Mus musculus, UniProt P38532)
Sequence (P38532 whole entry): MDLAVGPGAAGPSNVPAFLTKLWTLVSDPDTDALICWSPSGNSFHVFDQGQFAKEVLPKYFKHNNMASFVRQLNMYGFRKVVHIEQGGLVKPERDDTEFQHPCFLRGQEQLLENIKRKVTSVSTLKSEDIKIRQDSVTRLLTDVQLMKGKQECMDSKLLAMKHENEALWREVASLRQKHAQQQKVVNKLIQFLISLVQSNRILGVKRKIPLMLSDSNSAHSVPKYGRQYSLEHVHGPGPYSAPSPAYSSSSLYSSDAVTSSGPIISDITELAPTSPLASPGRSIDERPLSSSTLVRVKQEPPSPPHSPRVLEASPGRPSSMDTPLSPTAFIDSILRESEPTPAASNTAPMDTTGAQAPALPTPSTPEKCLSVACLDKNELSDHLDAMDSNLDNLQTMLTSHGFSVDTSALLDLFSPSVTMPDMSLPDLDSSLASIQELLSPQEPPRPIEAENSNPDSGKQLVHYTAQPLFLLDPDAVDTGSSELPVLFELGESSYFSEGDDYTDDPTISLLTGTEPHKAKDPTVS
method: enhancement of HSF1-driven luciferase signal – cell-based, NIH3T3, luminescence, dose retest, confirmation (AID 435004);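 further: stress induced by proteasome inhibitor MG132 added 30 min after compound; luciferase reporter driven by HSF1 response element in NIH3T3 cells; actives raise luminescence as potentiators of the MG132 stress response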
Assay type: functional
The source made the active and inactive calls.
metric: EC50

The examples below pair each entry with its known result.
{"columns": ["molecule", "recordedMeasurement"],
 "data": [
  ["O=C(NCCN1Cc2ccccc2C1=O)c1cccs1", "> 260 µM (inactive)"],
  ["Cc1ccc(C(=O)n2cnnc2N)cc1", "> 260 µM (inactive)"],
  ["Cc1ccc2[nH]c(SCC(=O)Nc3cccc(S(=O)(=O)NC4=NCCCCC4)c3)nc2c1", "> 260 µM (inactive)"],
  ["CCOC(=O)COc1ccc2ccccc2c1/C=C/[N+](=O)[O-]", "3.33 µM (inconclusive)"],
  ["Cc1cc(-c2ccc(C(C)C)c(S(=O)(=O)NCCN3CCC(C)CC3)c2)on1", "> 260 µM (inactive)"],
  ["CCOc1ccccc1CN1CCN(Cc2cn(C)nc2-c2ccccc2)CC1CCO (stereo unspecified)", "> 260 µM (inactive)"],
  ["Cc1ccc(C(C(=O)NC2CCCCC2)N(C(=O)Cc2c[nH]c3ccccc23)c2ccccc2)o1 (stereo unspecified)", "> 260 µM (inactive)"],
  ["CCN(C(=O)c1cccc(S(=O)(=O)N2CCCCC2)c1)C1CCS(=O)(=O)C1 (stereo unspecified)", "> 260 µM (inactive)"],
  ["O=C(O)C(Cc1ccccc1)N1C(=O)c2c(Cl)c(Cl)c(Cl)c(Cl)c2C1=O (stereo unspecified)", "37.1 µM (active)"],
  ["CCC(=O)N1CCN(c2ccc(NC(=O)COc3ccc(C)cc3C)cc2)CC1", "> 260 µM (inactive)"]
]}

Given `CCOC(=O)c1c(-c2ccc(C)cc2)cn2ccccc12` , state its recorded EC50. > 260 µM (inactive)
